assay_remarks: qHTS RealTime-Glo MT Cell Viability Assay in HEK293 cells - 16 hour (AID 1224872); also: top concentration of the series differs between compounds; nearly all actives have a fitted effect of over 50% in size
recorded_conditions: RealTime-Glo luminescence; series mostly up to 76.8 µM
Results filed as inconclusive are left out. Calls of active or inactive are those of the source. Calls follow the shape of the dose curve; as a rule, active = well fitted cell-killing curve with a large enough effect in the repeat runs; inconclusive = weak or mixed curves, or effect the other way; inactive = flat fitted curve, though single readings scatter.
observable: outcome

Some molecules with known outcome results, for comparison:
[[record]]
molecule = "O=c1[nH]oc2c1CCNC2"
observable = "outcome"
experimental_value = "inactive"

[[record]]
molecule = "CC(Cc1ccccc1)NCCCCl (stereo not given)"
observable = "outcome"
experimental_value = "inactive"

[[record]]
molecule = "O=[N+]([O-])CCO"
observable = "outcome"
experimental_value = "inactive"

[[record]]
molecule = "O=C(O)c1c(Cl)ccc2cc(Cl)cnc12"
observable = "outcome"
experimental_value = "inactive"


Lab book: outcome of CN1COCN(Cc2cnc(Cl)s2)/C1=N\[N+](=O)[O-] noted as inactive

# molecule CCCOC(=O)Cc1ccc(OCC(=O)N(CC)CC)c(OC)c1 ; its outcome = inactive

outcome reported for this molecule Cl/C=C/CCl : inactive

The recorded outcome for entry CCOC(=O)COc1ccc(Cl)cc1Cl equals inactive

Per the records, this molecule ( Cc1ccc(-c2nc3ccc(C)cn3c2CC(=O)N(C)C)cc1 ) has outcome equal to inactive

// CCN(CC)CCOC(=O)C(O)(c1ccccc1)c1ccccc1 : outcome value = inactive

Just so you know, measured outcome for O=C/C=C/c1ccco1 came out at inactive

Measured outcome of CC(C)c1ccc(O)cc1 : inactive

----------
system_under_test: Estrogen receptor (Homo sapiens) (UniProt P03372)
Sequence (P03372 whole entry, looked up): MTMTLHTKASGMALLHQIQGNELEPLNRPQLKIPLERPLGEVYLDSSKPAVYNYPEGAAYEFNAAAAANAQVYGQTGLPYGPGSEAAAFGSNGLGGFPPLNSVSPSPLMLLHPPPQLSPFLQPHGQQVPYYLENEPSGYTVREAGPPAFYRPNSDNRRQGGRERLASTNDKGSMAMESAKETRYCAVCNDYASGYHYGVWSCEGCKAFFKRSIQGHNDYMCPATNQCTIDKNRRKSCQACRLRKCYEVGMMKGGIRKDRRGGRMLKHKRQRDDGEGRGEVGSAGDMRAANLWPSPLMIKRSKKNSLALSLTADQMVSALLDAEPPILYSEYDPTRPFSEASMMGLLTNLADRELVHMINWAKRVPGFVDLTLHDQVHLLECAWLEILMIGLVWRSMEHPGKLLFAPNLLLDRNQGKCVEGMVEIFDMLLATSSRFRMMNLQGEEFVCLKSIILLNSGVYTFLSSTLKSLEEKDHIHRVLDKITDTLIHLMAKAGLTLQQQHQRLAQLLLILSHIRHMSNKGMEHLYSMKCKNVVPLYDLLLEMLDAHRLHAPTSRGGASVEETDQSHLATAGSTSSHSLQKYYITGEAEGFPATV
assay_remarks: qHTS assay to identify small molecule agonists of the estrogen receptor alpha (ER-alpha) signaling pathway in the presence of an antagonist (AID 1259383); also: top concentration of the series differs between compounds; nearly all actives have a fitted effect of over 15% in size
recorded_conditions: VM7Luc4E2 cells, ERE-luciferase, +ICI-182,780, 22 h; series mostly up to 92.4 µM
Calls of active or inactive are those of the source. Calls follow the shape of the full dose curve.
Give your call using only these classes: true = active, false = inactive

Before answering, review these 5 worked examples.
[[record]]
compound = "CCOP(=S)(OCC)SCCl"
label = "false"

[[record]]
compound = "O=C1CC(=O)NC(=O)N1"
label = "false"

[[record]]
compound = "CC[C@H](N)c1ccccc1"
label = "false"

[[record]]
compound = "O=C(Cl)C(Cl)(Cl)Cl"
label = "false"

[[record]]
compound = "ClCOCCl"
label = "false"


Req: Which result was noted for this compound in the test: C=CCCC#N
Resp: false

Req: Please state the recorded outcome for this compound: CCN(CCO)CCO
Resp: false

Req: For O=c1[nH]oc2c1CCNC2 , which call appears in the assay record?
Resp: false

Req: Answer briefly: the call reported for CC(=O)CN(CC(C)=O)N=O in this assay.
Resp: false

Req: Any idea what this test logged for CC1NCCOC1c1ccccc1 (stereo not drawn) ?
Resp: false

Req: How was CCN(CC)CCOC(=O)C(O)(c1ccccc1)c1ccccc1 classified in this test?
Resp: false

Req: Kindly provide the recorded test outcome for the following compound: CC[C@H](O)C(C[C@H](C)N(C)C)(c1ccccc1)c1ccccc1
Resp: false

Req: Status in this test for O=C(Cl)/C=C/C(=O)Cl ?
Resp: false

----------
assay_remarks: qHTS assay for identifying genotoxic compounds that show differential cytotoxicity against isogenic chicken DT40 cell lines with known DNA damage response pathways - wild type cell line (AID 743012); also: nearly all actives have a fitted effect of over 60% in size
recorded_conditions: DT40 wild type chicken cells viability, CellTiter-Glo, 40 h; series mostly up to 68.4 µM
Results filed as inconclusive are left out. Calls of active or inactive are those of the source. Calls come from the whole dose curve; as a rule, active = well fitted cell-killing curve with a large enough effect in the repeat runs; inconclusive = weak or mixed curves, or effect the other way; inactive = no such curve, though single readings can be large or run the other way.
Give your call using only these classes: active, inactive

Would you please look over these solved cases?
[[record]]
molecule = "CC(C)c1ccc(O)cc1"
label = "inactive"

[[record]]
molecule = "Cl/C=C/CCl"
label = "inactive"

[[record]]
molecule = "C=CC(=O)OCCN(C)C"
label = "inactive"

[[record]]
molecule = "CCOC(=O)N(C)N=O"
label = "inactive"

[[record]]
molecule = "COc1ccc2c(C(=O)c3ccc(Cl)cc3)c(C)n(CC(=O)O)c2c1"
label = "inactive"

[[record]]
molecule = "ClCCCCl"
label = "inactive"

[[record]]
molecule = "O=C(O)C(Cl)Br (stereo not drawn)"
label = "inactive"

[[record]]
molecule = "CCOc1cc(OP(=S)(OC)OC)nc(CC)n1"
label = "inactive"

[[record]]
molecule = "CCOC(=O)C(SP(=S)(OC)OC)c1ccccc1 (stereo not drawn)"
label = "inactive"

[[record]]
molecule = "CCN[C@@H](C)Cc1ccccc1"
label = "inactive"


Req: // return assay outcome for CCNc1nc(Cl)nc(NC(C)(C)C)n1
Resp: inactive

Req: In this assay, the call recorded for O=C(O)c1c(Cl)ccc2cc(Cl)cnc12 was what?
Resp: inactive

Req: // param item: Cn1c(N)nc2c3cccnc3ccc21 ; yields the recorded call
Resp: inactive

Req: State the result this test recorded for [P]#[In] .
Resp: inactive

Req: GET /call?item= CCC(C)(C#N)N=NC(C)(C#N)CC (stereo not drawn) returns the recorded outcome of this test.
Resp: inactive

Req: Called result for CCC1(c2ccccc2)C(=O)N(COC)C(=O)N(COC)C1=O
Resp: inactive

Req: Recorded test call requested for O=C(NC(=O)c1c(F)cccc1F)Nc1cc(Cl)c(F)c(Cl)c1F
Resp: active

The reported numbers originate from PubChem BioAssay (Tox21).
